Documented binding score across a set of binders
# target.under.test: T1, CaBdf1 BD1 (GST-tagged, wild-type) (Candida albicans (strain SC5314 / ATCC …, UniProt Q5A4W8))
# T1 chain: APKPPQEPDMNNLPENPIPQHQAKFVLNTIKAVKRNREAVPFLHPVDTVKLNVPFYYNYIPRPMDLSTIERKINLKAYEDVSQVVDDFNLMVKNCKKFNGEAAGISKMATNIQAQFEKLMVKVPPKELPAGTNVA
# protocol.text: histone peptide array (Active Motif MODified), 1 uM GST-tagged bromodomain, anti-GST detection, normalized mean intensity
Ends that are not written are not given here.

[
  {
    "binder": "ARTKQTARKSTGGKAPRKQ (A R T K Q T A Rme2a Kme3 pS T G G K A P R K Q)",
    "binding score": 0.00254
  },
  {
    "binder": "ARTKQTARKSTGGKAPRKQ (A R T Kac Q T A Rme2a Kme3 S T G G K A P R K Q)",
    "binding score": 0.0087
  },
  {
    "binder": "SGRGKGGKGLGKGGAKRHR (pS G R G K G G K G L G K G G A K R H R) [H4 1-19]",
    "binding score": 0.00471
  },
  {
    "binder": "PDPAK(Ac)SAPAPKK(Ac)GSK(Ac)KAVT [H2B 1-19]",
    "binding score": 0.0616
  },
  {
    "binder": "ARTKQTARKSTGGKAPRKQ (A Rme2s pT Kme3 Q T A R K S T G G K A P R K Q)",
    "binding score": 0.00363
  },
  {
    "binder": "ARTKQTARKSTGGKAPRKQ (A Rme2s T Kme1 Q T A R Kme3 S T G G K A P R K Q)",
    "binding score": 0.00326
  },
  {
    "binder": "ARTKQTARKSTGGKAPRKQ (A Rme2s T Kme1 Q T A Rme2s Kme1 S T G G K A P R K Q)",
    "binding score": 0.00326
  }
]
